Tested on: RERF-LC-KJ
ASSAY: relative viability (nuclei count vs DMSO), 5 days (fraction); higher = more cells survive
EXPERIMENTAL CONDITIONS: first compound 0.2 µM
Note to self: relative viability under 0.5 means criterion met, ties and anything higher get criterion not met.

Worked set:
- CCNC(=O)c1noc(-c2cc(C(C)C)c(O)cc2O)c1-c1ccc(CN2CCOCC2)cc1 [Luminespib] + C[C@@H](Oc1cc(-c2cnn(C3CCNCC3)c2)cnc1N)c1c(Cl)ccc(F)c1Cl [Crizotinib] (partner 1 µM): criterion met
- CN1CCN(CCOc2cc(OC3CCOCC3)c3c(Nc4c(Cl)ccc5c4OCO5)ncnc3c2)CC1 [Saracatinib] + Nc1nc2[nH]cc(CCc3ccc(C(=O)N[C@@H](CCC(=O)O)C(=O)O)cc3)c2c(=O)[nH]1 [Pemetrexed] (partner 0.2 µM): criterion met
- Cc1csc(=NC2CCCCC2)n1/N=C/c1ccc(O)c(O)c1O [MIM1] + CCNC(=O)c1noc(-c2cc(C(C)C)c(O)cc2O)c1-c1ccc(CN2CCOCC2)cc1 [Luminespib] (partner 0.01 µM): criterion not met
- Cc1csc(=NC2CCCCC2)n1/N=C/c1ccc(O)c(O)c1O [MIM1] + C[C@]1(O)C[C@@H](c2nc(-c3ccc4ccc(-c5ccccc5)nc4c3)c3c(N)nccn32)C1 [Linsitinib] (partner 1 µM): criterion not met

Threshold test, relative viability < 0.5: Cc1csc(=NC2CCCCC2)n1/N=C/c1ccc(O)c(O)c1O [MIM1] + CC(C)C[C@H](NC(=O)[C@H](Cc1ccccc1)NC(=O)c1cnccn1)B(O)O [Bortezomib] (partner 0.002 µM) criterion not met

Another molecule: CCNC(=O)c1noc(-c2cc(C(C)C)c(O)cc2O)c1-c1ccc(CN2CCOCC2)cc1 [Luminespib] + CS(=O)(=O)N1CCN(Cc2cc3nc(-c4cccc5[nH]ncc45)nc(N4CCOCC4)c3s2)CC1 [Pictilisib] (partner 1 µM) criterion met

Another molecule: CCNC(=O)c1noc(-c2cc(C(C)C)c(O)cc2O)c1-c1ccc(CN2CCOCC2)cc1 [Luminespib] + CS(=O)(=O)CCNCc1ccc(-c2ccc3ncnc(Nc4ccc(OCc5cccc(F)c5)c(Cl)c4)c3c2)o1 [Lapatinib] (partner 2 µM) criterion met

Another molecule: CN1CCN(CCOc2cc(OC3CCOCC3)c3c(Nc4c(Cl)ccc5c4OCO5)ncnc3c2)CC1 [Saracatinib] + Cc1cc(Nc2cc(N3CCN(C)CC3)nc(Sc3ccc(NC(=O)C4CC4)cc3)n2)n[nH]1 [Tozasertib] (partner 0.1 µM) criterion met

Another molecule: Cc1csc(=NC2CCCCC2)n1/N=C/c1ccc(O)c(O)c1O [MIM1] + Nc1ncn([C@H]2C[C@H](O)[C@@H](CO)O2)c(=O)n1 [Decitabine] (partner 2 µM) criterion not met

Another molecule: CCNC(=O)c1noc(-c2cc(C(C)C)c(O)cc2O)c1-c1ccc(CN2CCOCC2)cc1 [Luminespib] + O=C(c1cc(Cc2n[nH]c(=O)c3ccccc23)ccc1F)N1CCN(C(=O)C2CC2)CC1 [Olaparib] (partner 8 µM) criterion met

Another molecule: Cc1csc(=NC2CCCCC2)n1/N=C/c1ccc(O)c(O)c1O [MIM1] + O=C(CCCCCCC(=O)Nc1ccccc1)NO [Vorinostat] (partner 1 µM) criterion not met
